- Test system: CP247
- protocol_notes: qHTS profiling for inhibitors of Plasmodium falciparum proliferation (AID 504749); note: nearly all actives have a fitted effect of over 60% in size
- test_context: P. falciparum in erythrocytes, SYBR Green DNA, 72 h; series mostly up to 28.7 µM
Results filed as inconclusive are left out. Active and inactive are the calls of the source. Calls come from the whole dose curve; as a rule, active = well fitted inhibition curve with a large enough effect; inconclusive = small, poorly fitted or top-dose-only effect; inactive = flat fitted curve, though single readings scatter.
Field 'call' accepts active, inactive

Some solved entries appear below for comparison.
NC(=O)c1cn(Cc2c(F)cccc2F)nn1 : inactive
CC(C)(Oc1ccc(CCNC(=O)c2ccc(Cl)cc2)cc1)C(=O)O : inactive
NC1=NCC2c3ccccc3Cc3ccccc3N12 (centres undefined) : inactive
NCCCNCCSP(=O)(O)O : inactive

Hi team, can someone confirm the assay call for `CN=C(NC#N)NCCSCc1nc[nH]c1C` ?
inactive

Hi team, can someone confirm the assay call for `CCCC(C(=O)OCCN(CC)CC)(c1ccccc1)c1ccccc1` ?
active

Hi team, can someone confirm the assay call for `CC(=O)OCC1=C(C(=O)O)N2C(=O)[C@@H](NC(=O)Cc3cccs3)[C@H]2SC1` ?
inactive

Hi team, can someone confirm the assay call for `CCOC(=O)c1cnc2c(cnn2CC)c1NN=C(C)C` ?
inactive

Hi team, can someone confirm the assay call for `COc1ccc([C@@H]2Sc3ccccc3N(CCN(C)C)C(=O)[C@@H]2OC(C)=O)cc1` ?
inactive

Hi team, can someone confirm the assay call for `c1cnc(N2CCN(Cc3ccc4c(c3)OCO4)CC2)nc1` ?
inactive

Hi team, can someone confirm the assay call for `O=C1NCN(c2ccccc2)C12CCN(CCCC(c1ccc(F)cc1)c1ccc(F)cc1)CC2` ?
active

Hi team, can someone confirm the assay call for CCOC(=O)C1=C(C)NC(C)=C(C(=O)OC)C1c1cccc(Cl)c1Cl (centres undefined) ?
inactive

Hi team, can someone confirm the assay call for OC(CCN1CCCCC1)(c1ccccc1)C1CCCCC1 (centres undefined) ?
inactive

Hi team, can someone confirm the assay call for `CC(=O)[C@@]1(O)CC[C@H]2[C@@H]3CCC4=CC(=O)CC[C@]4(C)[C@H]3CC[C@@]21C` ?
inactive
